# pKi listing for each entry below
- TESTED SYSTEM: BRD4 (BDII_E352-M457) (Homo sapiens)
- Construct: protocol; made in house
- ASSAY NAME: TR-FRET bromodomain binding assay, second bromodomain of BRD4
- CONDITIONS USED: TR-FRET assay protocol G (compound 0.92 μM-15 pM); 30 nM probe
pKi: −log10 of the molar value.

COMPOUND	pKi
Cn1cc2c3c(c[nH]c3c1=O)CN(C(C#N)c1ccccc1)c1ccc(CS(C)(=O)=O)cc1-2 (stereo not drawn) [Example 261]	8.11
Cc1ccccc1NC(=O)N1Cc2c[nH]c3c(=O)n(C)cc(c23)-c2cc(CS(C)(=O)=O)ccc21 [Example 52]	8.30
Cn1cc2c3c(c[nH]c3c1=O)CN(c1ccccn1)c1ccc(CS(C)(=O)=O)cc1-2 [Example 207]	8.68
COc1ccc(NC(=O)N2Cc3c[nH]c4c(=O)n(C)cc(c34)-c3cc(CS(C)(=O)=O)ccc32)cc1 [Example 62]	8.33
Cn1cc2c3c(c[nH]c3c1=O)C(CCCOc1ccccc1)N(c1ccc(F)cc1F)c1ccc(CS(C)(=O)=O)cc1-2 (stereo not drawn) [Example 143]	8.51
CCNC(=O)c1[nH]c2c(=O)n(C)cc3c2c1CN(c1ccc(C#N)cc1)c1ccc(CS(C)(=O)=O)cc1-3 [Example 203]	9.15
Cn1cc2c3c(c[nH]c3c1=O)CN(C(=O)Oc1ccccc1)c1ccc(CS(C)(=O)=O)cc1-2 [Example 93]	8.79
Cn1cc2c3c(c[nH]c3c1=O)C(CCC(=O)NC1CCOCC1)N(c1ccc(F)cc1F)c1ccc(CS(C)(=O)=O)cc1-2 (stereo not drawn) [Example 121]	9.10
Cn1cc2c3c(c[nH]c3c1=O)CN(C(=O)Nc1ccc(F)cc1F)c1ccc(CS(C)(=O)=O)cc1-2 [Example 68]	8.37
COc1ccc(C(=O)N2Cc3c[nH]c4c(=O)n(C)cc(c34)-c3cc(CS(C)(=O)=O)ccc32)cc1 [Example 110]	7.70
CN1CCN(Cc2[nH]c3c(=O)n(C)cc4c3c2CN(c2ccc(Cl)cc2)c2ccccc2-4)CC1 [Example 146]	7.77
COC(=O)CNC(=O)C1c2c[nH]c3c(=O)n(C)cc(c23)-c2cc(CS(C)(=O)=O)ccc2N1c1ccc(F)cc1F (stereo not drawn) [Example 155]	7.32
CCNC(=O)c1[nH]c2c(=O)n(C)cc3c2c1CN(c1ccc(Cl)cc1)c1ccc(CS(C)(=O)=O)cc1-3 [Example 59]	9.01
Cn1cc2c3c(c[nH]c3c1=O)C(c1ccccn1)N(c1ccc(F)cc1F)c1ccc(CS(C)(=O)=O)cc1-2 (stereo not drawn) [Example 232]	8.07
Cn1cc2c3c(c[nH]c3c1=O)C(C(=O)NCC1CC1)N(c1ccc(F)cc1F)c1ccc(CS(C)(=O)=O)cc1-2 (stereo not drawn) [Example 164]	7.52
